TESTED SYSTEM: P450RAI-1 (Homo sapiens, UniProt O43174)
RUN DESCRIPTION: P450RAI-1 cell-based inhibitor assay (intact HeLa)
CONDITIONS USED: read-out: P450RAI INHIBITION DATA INTACT HELA IC50
pIC50: −log10 of the molar value.
TEST READOUT: pIC50

The following compounds have reported results that may help.
COMPOUND	EXPERIMENTAL RESULT
CC1(C)CCC(C)(C)c2cc(C(=O)Oc3ccc(C(=O)O)cc3)ccc21 [Compound 243]	5.13
CC1(C)CCC(C)(C)c2cc(C(=O)/C=C/c3ccc(C(=O)O)cc3)ccc21 [Compound 242]	5.24
CC1=C(/C=C/C#Cc2ccc(C(=O)O)c(F)c2)C(C)(C)CCC1 [Compound 229]	5.80
CCC1(CC)CC(C)(C)c2cc(C(=O)Nc3ccc(C(=O)O)c(F)c3)cc(Br)c2O1 [Compound 206]	5.74
CC1(C)CCC(C)(C)c2cc(-c3ccc4cc(C(=O)O)ccc4c3)ccc21 [Compound 241]	5.26

[I] CC1(C)CCSc2ccc(C#Cc3ccc(C(=O)O)cn3)cc21 [Compound 238]
[II] COc1ccc(C#Cc2ccc(C(=O)O)cc2)cc1C12CC3CC(CC(C3)C1)C2 [Compound 214]
Ask: I'm curious whether I or II has the smaller pIC50 number. Which is it? Respond with the label that goes with your answer.
Result: I
(I: 5.14, II: 5.72)

###

TESTED SYSTEM: UniProt:O43174
Sequence (O43174 1-497): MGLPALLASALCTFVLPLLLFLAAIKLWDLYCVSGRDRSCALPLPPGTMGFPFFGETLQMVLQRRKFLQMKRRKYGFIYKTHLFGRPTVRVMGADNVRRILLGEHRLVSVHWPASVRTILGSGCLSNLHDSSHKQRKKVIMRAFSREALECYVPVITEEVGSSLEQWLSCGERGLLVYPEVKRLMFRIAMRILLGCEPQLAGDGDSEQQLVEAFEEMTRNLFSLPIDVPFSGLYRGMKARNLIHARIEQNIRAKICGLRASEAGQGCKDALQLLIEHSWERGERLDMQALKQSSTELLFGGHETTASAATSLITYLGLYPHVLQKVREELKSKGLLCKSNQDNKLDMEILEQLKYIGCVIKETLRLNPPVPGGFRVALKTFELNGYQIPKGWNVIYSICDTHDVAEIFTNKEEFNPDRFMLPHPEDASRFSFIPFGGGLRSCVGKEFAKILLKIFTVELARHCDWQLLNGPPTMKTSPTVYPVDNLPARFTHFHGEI
RUN DESCRIPTION: P450RAI-1 cell-based inhibitor assay (intact HeLa)
CONDITIONS USED: read-out: P450RAI INHIBITION DATA INTACT HELA IC50
Experimental: P450RAI-1 Cell-Based Inhibitor Assay: P450RAI-1 stably transfected HeLa cells are maintained in […] tissue culture dishes in Modified Eagle's Medium (MEM) containing 10% Fetal Bovine Serum (FBS) and 100 μg/ml hygromycin. Exponentially growing cells are harvested by incubating in trypsin. […] The water soluble radioactivity is quantified using β-scintillation counter. […]
TEST READOUT: IC50 (µM)

COMPOUND	UNITS LABEL	IC50
COc1ccc(-c2ccc3cc(C(=O)O)ccc3c2)cc1C12CC3CC(CC(C3)C1)C2 [Compound 234]	µM	4.7

[P] CC1(C)CCSc2ccc(C#Cc3ccc(C(=O)O)cc3)cc21 [Compound 215]
[Q] CC1(C)CC(C)(C)c2cc(C(=O)Nc3ccc(C(=O)O)c(F)c3)cc(Cl)c2O1 [Compound 203]
[R] CC1(C)CCCc2ccc(C#Cc3ccc(C(=O)O)cc3)cc21 [Compound 208]
Ask: List these items ordered by IC50, big to small. Please list the labels according to the requested order.
Result: P, R, Q
(P: 6.2 µM, R: 1 µM, Q: 0.62 µM)

Every entry's value here was drawn from patent US6855512B2.
